Test system: HRE-bla ME-180 cells
protocol_notes: Reporter gene assay (HRE-bla ME-180 HIF reporter, GeneBLAzer)
Format: cell-based, human
run_conditions: 24 hour normoxia
Bridge positions count the residues as written; N and C are the ends. Square brackets hold non-standard residues; d marks the D form. Peptide text beside a SMILES is read from it. S5 = C=CCCC[C@](C)(N)C(=O)O; Nle = CCCC[C@H](N)C(=O)O
property_measured: EC50

Here is how some compounds turned out for EC50.
CCCC[C@@H]1NC(=O)[C@H](CC(C)C)NC(=O)[C@H]([C@@H](C)O)NC(=O)[C@@](C)(NC(=O)[C@H](CCC(=O)O)NC(=O)[C@H](CC(=O)O)NC(=O)[C@@H](NC(=O)[C@H](Cc2ccccc2)NC(C)=O)[C@@H](C)CC)CCCC=CCCCC2(CCCC=CCCC[C@](C)(C(=O)N[C@@H](CCCC)C(=O)N[C@@H](C)C(=O)N[C@@H](CC(C)C)C(N)=O)NC(=O)[C@H]([C@@H](C)CC)NC(=O)[C@H](C(C)C)NC(=O)[C@H](CC(C)C)NC2=O)NC1=O (stereo partly shown) [SP-207]; > 30 µM
CCCC[C@H](NC(=O)[C@H](Cc1ccccc1)NC(=O)[C@@H](NC(=O)[C@H](CCC(=O)O)NC(=O)[C@H](CCC(=O)O)NC(=O)[C@H](CC(=O)O)NC(=O)[C@@H](NC(C)=O)[C@@H](C)CC)C(C)C)C(=O)N[C@@]1(C)CCCC=CCCC[C@@](C)(C(=O)N[C@@H](CCCC)C(=O)N[C@@H](C)C(=O)N[C@@H](CC(C)C)C(=O)N[C@@H](CC(C)C)C(N)=O)NC(=O)[C@H]([C@@H](C)CC)NC(=O)[C@H](C(C)C)NC(=O)[C@H](CC(C)C)NC1=O [SP-243] (Ac-IDEEVF[Nle][S5]LVI[S5][Nle]ALL-NH2; staple 8-12); 15 to 30 µM
CC[C@H](C)[C@H](NC(=O)[C@H](Cc1ccccc1)NC(C)=O)C(=O)N[C@H](C(=O)N[C@@H](CCC(=O)O)C(=O)N[C@@H](CCC(=O)O)C(=O)N[C@H](C(=O)N[C@@H](CC(C)C)C(=O)N[C@@H](CCSC)C(=O)N[C@@]1(C)CCCC=CCCC[C@@](C)(C(=O)N[C@@H](CCSC)C(=O)N[C@@H](C)C(=O)N[C@@H](CC(C)C)C(N)=O)NC(=O)[C@H]([C@@H](C)CC)NC(=O)[C@H](C(C)C)NC(=O)[C@H](CC(C)C)NC1=O)C(C)C)[C@@H](C)O [SP-231] (Ac-FITEEVLM[S5]LVI[S5]MAL-NH2; staple 9-13); > 30 µM

Next compound, EC50 to be filled in.
## Input Form field: reported EC50 of CCCC[C@H](NC(=O)[C@H](CCC(=O)O)NC(=O)[C@@H](NC(=O)[C@@H](NC(=O)[C@H](CC(C)C)NC(=O)[C@]1(C)CCCC=CCCC[C@](C)(NC(=O)[C@H](CCCNC(=N)N)NC(=O)[C@H](CC(=O)O)NC(=O)[C@@H](NC(=O)[C@H](Cc2ccccc2)NC(C)=O)[C@@H](C)CC)C(=O)N[C@@H](C(C)C)C(=O)N[C@@H](CC(C)C)C(=O)N[C@@H](CCCC)C(=O)N1)C(C)C)[C@@H](C)CC)C(=O)N[C@@H](C)C(=O)N[C@@H](CC(C)C)C(N)=O [SP-156] (Ac-FIDR[S5]VL[Nle][S5]LVIE[Nle]AL-NH2; staple 5-9)
## Output > 30 µM

###

Test system: HRE-bla ME-180 cells
protocol_notes: Reporter gene assay (HRE-bla ME-180 HIF reporter, GeneBLAzer)
Assay type: cell-based, human
run_conditions: 18 h; at top conc; 24 hrs normoxia
Bridge positions count the residues as written; N and C are the ends. Square brackets hold non-standard residues; d marks the D form. Peptide text beside a SMILES is read from it. S5 = C=CCCC[C@](C)(N)C(=O)O; Nle = CCCC[C@H](N)C(=O)O
property_measured: 18 h Avg % max inhibition at top conc (HIF Rptr-24 hrs normoxia) (μM)

CCCC[C@H](NC(=O)[C@H](CCC(=O)O)NC(=O)[C@@H](NC(=O)[C@@H](NC(=O)[C@H](CC(N)=O)NC(=O)[C@]1(C)CCCC=CCCC[C@](C)(NC(=O)[C@H](C)NC(=O)[C@H](CC(=O)O)NC(=O)[C@@H](NC(=O)[C@H](Cc2ccccc2)NC(C)=O)[C@@H](C)CC)C(=O)N[C@@H]([C@@H](C)O)C(=O)N[C@@H](CC(C)C)C(=O)N[C@@H](CCCC)C(=O)N1)C(C)C)[C@@H](C)CC)C(=O)N[C@@H](C)C(=O)N[C@@H](CC(C)C)C(N)=O [SP-151] (Ac-FIDA[S5]TL[Nle][S5]NVIE[Nle]AL-NH2; staple 5-9); ++++ (≥50: ++++)
CCCC[C@H](NC(=O)[C@H](CCC(=O)O)NC(=O)[C@@H](NC(=O)[C@@H](NC(=O)[C@H](CC(C)C)NC(=O)[C@]1(C)CCCC=CCCC[C@](C)(NC(=O)[C@H](CCC(=O)O)NC(=O)[C@H](CC(=O)O)NC(=O)[C@@H](NC(=O)[C@H](Cc2ccccc2)NC(C)=O)[C@@H](C)CC)C(=O)N[C@@H](CC(N)=O)C(=O)N[C@@H](CC(C)C)C(=O)N[C@@H](CCCC)C(=O)N1)C(C)C)[C@@H](C)CC)C(=O)N[C@@H](C)C(=O)N[C@@H](CC(C)C)C(N)=O [SP-141] (Ac-FIDE[S5]NL[Nle][S5]LVIE[Nle]AL-NH2; staple 5-9); ++++ (≥50: ++++)
CCCC[C@H](NC(=O)[C@H](CCC(=O)O)NC(=O)[C@@H](NC(=O)[C@@H](NC(=O)[C@H](CC(C)C)NC(=O)[C@]1(C)CCCC=CCCC[C@](C)(NC(=O)[C@H](CCC(=O)O)NC(=O)[C@H](CC(=O)O)NC(=O)[C@@H](NC(=O)[C@H](Cc2ccccc2)NC(C)=O)[C@@H](C)CC)C(=O)N[C@@H](C(C)C)C(=O)N[C@@H](CC(C)C)C(=O)N[C@@H](CCCC)C(=O)N1)C(C)C)[C@@H](C)CC)C(=O)N[C@@H](C)C(=O)N[C@@H](CC(C)C)C(N)=O [SP-111] (Ac-FIDE[S5]VL[Nle][S5]LVIE[Nle]AL-NH2; staple 5-9); ++++ (≥50: ++++)

###

target_or_test_system: flag-tagged HIF1α (AA 786-826) / His6-tagged p300 (AA 323-423) complex (Homo sapiens)
Construct: His6-tagged p300 (AA 323-423); made in house; host or cells: E. coli (pETDuet vector)
protocol_notes: HIF1α p300 displacement assay (TR FRET, +CHAPS)
Assay type: binding
run_conditions: read-out: IC50 (nM) (HIF1α_p300 Displacement + CHAPS)
Bridge positions count the residues as written; N and C are the ends. Square brackets hold non-standard residues; d marks the D form. Peptide text beside a SMILES is read from it. R8 = C=CCCCCCC[C@@](C)(N)C(=O)O; S5 = C=CCCC[C@](C)(N)C(=O)O
property_measured: IC50

## Input Could you tell me which IC50 is on file for CC[C@H](C)[C@H](NC(=O)[C@H](Cc1ccccc1)NC(C)=O)C(=O)N[C@@H](CC(=O)O)C(=O)N[C@@H](CCC(=O)O)C(=O)N[C@]1(C)CCCCCCC=CCCC[C@@](C)(C(=O)N[C@@H](CCC(=O)O)C(=O)N[C@@H](CCSC)C(=O)NCC(N)=O)NC(=O)[C@H](C(C)C)NC(=O)[C@H](CC(C)C)NC(=O)[C@H](CO)NC(=O)[C@H](C)NC(=O)[C@H](CC(C)C)NC(=O)[C@H](C(C)C)NC1=O [SP-184] (Ac-FIDE[R8]VLASLV[S5]EMG-NH2; staple 5-12) ?
## Output > 700 nM

###

target_or_test_system: flag-tagged HIF1α (AA 786-826) / His6-tagged p300 (AA 323-423) complex (Homo sapiens)
Construct: His6-tagged p300 (AA 323-423); made in house; host or cells: E. coli (pETDuet vector)
protocol_notes: HIF1α p300 displacement assay (TR FRET, +CHAPS)
Type: binding
run_conditions: read-out: IC50 (nM) (HIF1α_p300 Displacement + CHAPS)
Bridge positions count the residues as written; N and C are the ends. Square brackets hold non-standard residues; d marks the D form. Peptide text beside a SMILES is read from it. S5 = C=CCCC[C@](C)(N)C(=O)O; Nle = CCCC[C@H](N)C(=O)O
property_measured: IC50

CC[C@H](C)[C@H](NC(=O)[C@H](Cc1ccccc1)NC(C)=O)C(=O)N[C@@H](CC(=O)O)C(=O)N[C@@H](CCC(=O)O)C(=O)N[C@@H](CC(N)=O)C(=O)N[C@H](C(=O)N[C@@H](CC(C)C)C(=O)N[C@@H](CCSC)C(=O)N[C@@]1(C)CCCC=CCCC[C@@](C)(C(=O)N[C@@H](CCSC)C(=O)N[C@@H](C)C(=O)N[C@@H](CC(C)C)C(N)=O)NC(=O)[C@H]([C@@H](C)CC)NC(=O)[C@H](C(C)C)NC(=O)[C@H](CC(C)C)NC1=O)C(C)C [SP-235] (Ac-FIDENVLM[S5]LVI[S5]MAL-NH2; staple 9-13); > 700 nM

Switching to the query record.
## Input // query IC50 value for entry CCCC[C@H](NC(=O)[C@H](CCC(=O)O)NC(=O)[C@@H](NC(=O)[C@@H](NC(=O)[C@H](CC(C)C)NC(=O)[C@]1(C)CCCC=CCCC[C@](C)(NC(=O)[C@H](CCCNC(=N)N)NC(=O)[C@H](CC(=O)O)NC(=O)[C@@H](NC(=O)[C@H](Cc2ccccc2)NC(C)=O)[C@@H](C)CC)C(=O)N[C@@H](C(C)C)C(=O)N[C@@H](CC(C)C)C(=O)N[C@@H](CCCC)C(=O)N1)C(C)C)[C@@H](C)CC)C(=O)N[C@@H](C)C(=O)N[C@@H](CC(C)C)C(N)=O [SP-156] (Ac-FIDR[S5]VL[Nle][S5]LVIE[Nle]AL-NH2; staple 5-9)
## Output 200 to 400 nM

These measurements were taken from patent US20190225650A1.
